# assay_remarks: cytotoxicity, hamster V-79 cells, colony reduction
# Assay type: cell-based
# measurement_setup: 3 hours treatment, colonies counted after 5 days, read-out: Cytotox (cytotoxicity IC50)
property_measured: CC50 at 3 h (µg/mL)
Answer with a number only, understood to be in µg/mL.

CCOc1c(N2CC[C@@H]([C@H](C)NC)C2)c(F)cc2c(=O)c(C(=O)O)cn(C3CC3)c12 [Example 57] ... 220

query: Request the reported CC50 at 3 h associated with CN[C@@H](C)[C@@H]1CCN(c2nc3c(cc2F)c(=O)c(C(=O)O)cn3C2CC2)C1 [Example 21]
result: 130

query: Request the reported CC50 at 3 h associated with C[C@H](N)[C@H]1CCN(c2cc3c(cc2F)c(=O)c(C(=O)O)cn3C2CC2)C1 [Example 2]
result: 160

query: Request the reported CC50 at 3 h associated with C[C@H](N)[C@@H]1CCN(c2nc3c(cc2F)c(=O)c(C(=O)O)cn3C2CC2)C1 [Example 7]
result: 33

====

Recorded ED50 for the following molecules
# Tested on: Strep. pheumoniae SV-1
# assay_remarks: median protective dose in mice given lethal systemic infections, Strep. pneumoniae SV-1
# Assay type: in vivo
# measurement_setup: Streptococcus pneumoniae, SV1, SC, single dose at time of challenge, read-out: median protective dose (PD50)
Answer with a number only, understood to be in mg/kg.

query: Request the reported ED50 associated with C[C@H](N)[C@@H]1CCN(c2nc3c(cc2F)c(=O)c(C(=O)O)cn3C2CC2)C1
result: 1

query: Request the reported ED50 associated with C[C@H](N)[C@@H]1CCN(c2nc3c(cc2F)c(=O)c(C(=O)O)cn3-c2ccc(F)cc2F)C1
result: 3

query: Request the reported ED50 associated with C[C@H](N)[C@H]1CCN(c2nc3c(cc2F)c(=O)c(C(=O)O)cn3C2CC2)C1
result: 10

query: Request the reported ED50 associated with C[C@@H](N)[C@@H]1CCN(c2nc3c(cc2F)c(=O)c(C(=O)O)cn3C2CC2)C1
result: 2

====

# Test system: Pseud. aeruginosa UI-18
# assay_remarks: in vitro antibacterial activity, microtitration dilution (MIC), Pseud. aeruginosa UI-18
# Assay type: cell-based
# measurement_setup: Pseudomonas aeruginosa, UI18, read-out: minimum inhibiting concentration (MIC)
Recorded MIC for the following molecules
Answer with a number only, understood to be in µg/mL.

C[C@H]([C@@H]1CCN(c2nc3c(cc2F)c(=O)c(C(=O)O)cn3C2CC2)C1)N(C)C ... 1.6
C[C@@H](N)[C@@H]1CCN(c2nc3c(cc2F)c(=O)c(C(=O)O)cn3-c2ccc(F)cc2F)C1 ... 1.6
C[C@@H]([C@@H]1CCN(c2cc3c(cc2F)c(=O)c(C(=O)O)cn3C2CC2)C1)N(C)C ... 1.6

query: Give MIC (Pseud. aeruginosa UI-18) of the following molecule: C[C@H](N)[C@@H]1CCN(c2nc3c(cc2F)c(=O)c(C(=O)O)cn3-c2ccc(F)cc2F)C1
result: 0.8

query: Give MIC (Pseud. aeruginosa UI-18) of the following molecule: CCN[C@H](C)[C@@H]1CCN(c2c(F)cc3c(=O)c(C(=O)O)cn(C4CC4)c3c2OC)C1
result: 3.1

query: Give MIC (Pseud. aeruginosa UI-18) of the following molecule: COc1c(N2CC[C@@H]([C@@H](C)N)C2)c(F)cc2c(=O)c(C(=O)O)cn(C3CC3)c12
result: 0.8

query: Give MIC (Pseud. aeruginosa UI-18) of the following molecule: CCN[C@H](C)[C@H]1CCN(c2nc3c(cc2F)c(=O)c(C(=O)O)cn3C2CC2)C1
result: 1.6

====

# Test system: Pseud. aeruginosa UI-18
# assay_remarks: in vitro antibacterial activity, microtitration dilution (MIC), Pseud. aeruginosa UI-18
# Format: cell-based
# measurement_setup: Pseudomonas aeruginosa, UI18, read-out: minimum inhibiting concentration (MIC)
Structures can show the parent of a compound that is named as a salt.
property_measured: log10 of MIC (log10 of the value in µg/mL)
log10 MIC, µg/mL

Recorded results for 6 molecules are shown here.
CN[C@@H](C)[C@@H]1CCN(c2cc3c(c(C)c2F)c(=O)c(C(=O)O)cn3C2CC2)C1 [Example 67, monohydrochloride] ... 0.49
COc1c(N2CC[C@@H]([C@H](C)N)C2)c(F)cc2c(=O)c(C(=O)O)cn(C3CC3)c12 ... -0.40
C[C@@H]([C@H]1CCN(c2nc3c(cc2F)c(=O)c(C(=O)O)cn3C2CC2)C1)N(C)C ... 1.10
CCOc1c(N2CC[C@@H]([C@H](C)NC)C2)c(F)cc2c(=O)c(C(=O)O)cn(C3CC3)c12 ... 0.49
CN[C@@H](C)[C@@H]1CCN(c2c(F)cc3c(=O)c(C(=O)O)cn(C4CC4)c3c2OC)C1 ... -0.10
CN[C@H](C)[C@@H]1CCN(c2cc3c(c(C)c2F)c(=O)c(C(=O)O)cn3-c2ccc(F)cc2F)C1 ... 0.49

query: Request the reported log10 of MIC associated with C[C@H](N)[C@@H]1CCN(c2nc3c(cc2F)c(=O)c(C(=O)O)cn3C2CC2)C1
result: -0.40

====

Recorded MIC for the following compounds
# Test system: Staph. aureus UC-76
Answer with a number only, understood to be in µg/mL.

Recorded results for 2 compounds are shown here.
C[C@H](N)[C@H]1CCN(c2cc3c(cc2F)c(=O)c(C(=O)O)cn3C2CC2)C1 ... 0.1
CN[C@H](C)[C@@H]1CCN(c2cc3c(c(C)c2F)c(=O)c(C(=O)O)cn3-c2ccc(F)cc2F)C1 ... 0.05

Proceed to the following item.
query: Give MIC (Staph. aureus UC-76) of the following compound: CCN[C@@H](C)[C@H]1CCN(c2c(F)cc3c(=O)c(C(=O)O)cn(C4CC4)c3c2OC)C1
result: 0.05

====

# Tested on: Pseud. aeruginosa UI-18
# assay_remarks: in vitro antibacterial activity, microtitration dilution (MIC), Pseud. aeruginosa UI-18
# Format: cell-based
# measurement_setup: Pseudomonas aeruginosa, UI18, read-out: minimum inhibiting concentration (MIC)
Structures can show the parent of a compound that is named as a salt.
Recorded MIC for the following compounds

Recorded results for 5 compounds are shown here.
CCN[C@@H](C)[C@H]1CCN(c2c(F)cc3c(=O)c(C(=O)O)cn(C4CC4)c3c2OC)C1 ... 6.3 µg/mL
CCN[C@@H](C)[C@@H]1CCN(c2cc3c(c(N)c2F)c(=O)c(C(=O)O)cn3C2CC2)C1 ... 1.6 µg/mL
CN[C@H](C)[C@H]1CCN(c2nc3c(cc2F)c(=O)c(C(=O)O)cn3C2CC2)C1 ... 1.6 µg/mL
CN[C@H](C)[C@H]1CCN(c2c(F)cc3c(=O)c(C(=O)O)cn(C4CC4)c3c2OC)C1 ... 3.1 µg/mL
CCN[C@H](C)[C@H]1CCN(c2c(F)cc3c(=O)c(C(=O)O)cn(C4CC4)c3c2OC)C1 ... 6.3 µg/mL

query: Request the reported MIC associated with CN[C@H](C)[C@@H]1CCN(c2c(F)c(N)c3c(=O)c(C(=O)O)cn(C4CC4)c3c2F)C1
result: 0.8 µg/mL

query: Request the reported MIC associated with CCN[C@@H](C)[C@@H]1CCN(c2cc3c(c(C)c2F)c(=O)c(C(=O)O)cn3C2CC2)C1
result: 3.1 µg/mL

query: Request the reported MIC associated with Cc1c(F)c(N2CC[C@@H]([C@H](C)N)C2)cc2c1c(=O)c(C(=O)O)cn2-c1ccc(F)cc1F [Example 65, monohydrochloride]
result: 0.8 µg/mL

query: Request the reported MIC associated with C[C@@H](N)[C@H]1CCN(c2cc3c(cc2F)c(=O)c(C(=O)O)cn3C2CC2)C1
result: 1.5 µg/mL

query: Request the reported MIC associated with CCN[C@@H](C)[C@@H]1CCN(c2cc3c(c(C)c2F)c(=O)c(C(=O)O)cn3-c2ccc(F)cc2F)C1
result: 3.1 µg/mL

query: Request the reported MIC associated with Cc1c(F)c(N2CC[C@@H]([C@@H](C)N)C2)cc2c1c(=O)c(C(=O)O)cn2-c1ccc(F)cc1F
result: 1.6 µg/mL

query: Request the reported MIC associated with CCN[C@@H](C)[C@H]1CCN(c2nc3c(cc2F)c(=O)c(C(=O)O)cn3C2CC2)C1
result: 3.1 µg/mL

query: Request the reported MIC associated with COc1c(N2CC[C@@H]([C@H](C)N)C2)c(F)c(N)c2c(=O)c(C(=O)O)cn(C3CC3)c12
result: 0.8 µg/mL

query: Request the reported MIC associated with CN[C@@H](C)[C@@H]1CCN(c2c(F)c(C)c3c(=O)c(C(=O)O)cn(C4CC4)c3c2OC)C1
result: 1.6 µg/mL

query: Request the reported MIC associated with CN[C@H](C)[C@H]1CCN(c2c(F)c(N)c3c(=O)c(C(=O)O)cn(C4CC4)c3c2F)C1
result: 3.1 µg/mL
